All figures here come from the supplement of paper PMC10126150.

System: ATP;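 note: ATP exposure 15 min at 22 °C before imaging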
Assay Method Text: switch fluorescence ratio, 500 uM ATP over buffer (Cy3 cluster intensity, sum of 5 cycles each) (fold (ratio)); higher = stronger signal-on switching upon ATP binding; sequences stand for … in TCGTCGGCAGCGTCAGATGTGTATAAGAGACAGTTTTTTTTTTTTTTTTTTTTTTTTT…TC
Condition Label: aptamer strand: ATP DNA aptamer (quencher-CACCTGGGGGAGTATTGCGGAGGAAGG + anchor), 100 nM annealed; ATP concentration: 500 uM
Quantity Kind: switch fluorescence ratio
Form field (numeric): enter value without unit.

Solved cases below.
Seq String | switch fluorescence ratio
TGGTGGGGTG | 0.986
AGATAACCCA | 1
TACTTCTGTG | 1
GGGATCCGAC | 1.05
TTCCTTAGTC | 1.02

Here's the next entry for you.
What value of switch fluorescence ratio has been recorded for this entry: TAAAGAGTGT 1.01

* * *

System: ATP;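 note: ATP exposure 15 min at 22 °C before imaging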
Assay Method Text: switch fluorescence ratio, 500 uM ATP over buffer (Cy3 cluster intensity, sum of 5 cycles each) (fold (ratio)); higher = stronger signal-on switching upon ATP binding; sequences stand for … in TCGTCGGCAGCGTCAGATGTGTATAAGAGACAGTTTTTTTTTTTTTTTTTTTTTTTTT…TC
Condition Label: aptamer strand: ATP DNA aptamer (quencher-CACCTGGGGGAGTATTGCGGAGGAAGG + anchor), 100 nM annealed; ATP concentration: 500 uM
As shown below, each of these sequences has a reported switch fluorescence ratio value.
Give the figure by itself; no unit, no explanation.

In the examples that follow, each entry is paired with its recorded switch fluorescence ratio.
Seq String | switch fluorescence ratio
TATTTTCGGG | 1.01
TTTCCATTAA | 1
CTGATTAGGA | 0.989
TATTTCTCGT | 1.01
GGGCACATGG | 1.02
TTTATGTTGG | 0.979

Recorded switch fluorescence ratio for GATTCATTAT , please? 0.988

For the sequence shown here, TTGACTTGTT , give the reported switch fluorescence ratio. 1.02

Report switch fluorescence ratio for TAGTTTGGGC please. 0.983

// switch fluorescence ratio lookup, key: TTCAGGGCTT 0.986

* * *

Test system: ATP;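 note: ATP exposure 15 min at 22 °C before imaging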
Assay Method Text: switch fluorescence ratio, 500 uM ATP over buffer (Cy3 cluster intensity, sum of 5 cycles each) (fold (ratio)); higher = stronger signal-on switching upon ATP binding; sequences stand for … in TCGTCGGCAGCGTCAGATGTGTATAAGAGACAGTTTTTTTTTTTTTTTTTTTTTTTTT…TC
Condition Label: aptamer strand: ATP DNA aptamer (quencher-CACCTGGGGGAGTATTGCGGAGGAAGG + anchor), 100 nM annealed; ATP concentration: 500 uM
Quantity Kind: switch fluorescence ratio
When you answer, write just the number.

Seq String | Quantity Kind | Number
GATTTGCTTT | switch fluorescence ratio | 0.98
ATTGACATGT | switch fluorescence ratio | 1.03
TGTGGGGCGG | switch fluorescence ratio | 1.01
TTTAAAATAG | switch fluorescence ratio | 1.01

Item TACTCTGAAA has what recorded switch fluorescence ratio? 2.38

* * *

Tested on: ATP;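 note: ATP exposure 15 min at 22 °C before imaging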
Assay Method Text: switch fluorescence ratio, 500 uM ATP over buffer (Cy3 cluster intensity, sum of 5 cycles each) (fold (ratio)); higher = stronger signal-on switching upon ATP binding; sequences stand for … in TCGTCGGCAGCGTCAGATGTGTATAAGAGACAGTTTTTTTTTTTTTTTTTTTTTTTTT…TC
Condition Label: aptamer strand: ATP DNA aptamer (quencher-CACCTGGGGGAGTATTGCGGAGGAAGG + anchor), 100 nM annealed; ATP concentration: 500 uM
Quantity Kind: switch fluorescence ratio
# answer = number (no unit)

Reference set, count: 3
Seq String | Number
TCGACTGAGG | 1.03
AAGAATGGCC | 0.954
TGTGGAGCAT | 1.29

Which value of switch fluorescence ratio has been reported for TGTAATTTCG in the records? 1.03

Fill in: switch fluorescence ratio of TACCGTTTGC is ___ 1.19

What value of switch fluorescence ratio has been reported for the following sequence? AGATTATCGT 1.01

* * *

Entries annotated with measured switch fluorescence ratio
Tested on: ATP;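 note: ATP exposure 15 min at 22 °C before imaging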
Assay Method Text: switch fluorescence ratio, 500 uM ATP over buffer (Cy3 cluster intensity, sum of 5 cycles each) (fold (ratio)); higher = stronger signal-on switching upon ATP binding; sequences stand for … in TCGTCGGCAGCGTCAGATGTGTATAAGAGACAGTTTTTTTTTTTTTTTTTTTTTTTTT…TC
Condition Label: aptamer strand: ATP DNA aptamer (quencher-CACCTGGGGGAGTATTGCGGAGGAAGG + anchor), 100 nM annealed; ATP concentration: 500 uM
Give a plain numeric answer without units written out.

# annotated cases, reported switch fluorescence ratio shown
Seq String | switch fluorescence ratio
GTAAGAGTGC | 1.03
TAACGCCCTA | 1.07
ACCAAATTCA | 1.04
TTCGGGGTCT | 1.01
TTATGGAATT | 1.01

Please report the recorded switch fluorescence ratio for TAGACCGTTC . 1.11

Field request: switch fluorescence ratio | item: GAGGGGTTCG 1.01

Bench note: what switch fluorescence ratio did GATTTAGATT show? 1

Consider the sequence shown here: TTTCTAACGT What is its recorded switch fluorescence ratio? 1

# query: switch fluorescence ratio of entry CTCGGCTGGT 1.01

Name the recorded switch fluorescence ratio for GATTGTGATG . 0.972

Give its switch fluorescence ratio value. Item: GAACTCTACT 1.14

Please report the recorded switch fluorescence ratio for TGCCCCTTTT . 0.98

What value of switch fluorescence ratio has been recorded for this entry: CGCTAGGGAC 1.31

Request the reported switch fluorescence ratio associated with GGGGCGGAGG 0.987

* * *

System: ATP;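 note: ATP exposure 15 min at 22 °C before imaging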
Assay Method Text: switch fluorescence ratio, 500 uM ATP over buffer (Cy3 cluster intensity, sum of 5 cycles each) (fold (ratio)); higher = stronger signal-on switching upon ATP binding; sequences stand for … in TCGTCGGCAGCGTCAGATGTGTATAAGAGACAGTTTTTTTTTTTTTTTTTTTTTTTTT…TC
Condition Label: aptamer strand: ATP DNA aptamer (quencher-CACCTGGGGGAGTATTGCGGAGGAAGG + anchor), 100 nM annealed; ATP concentration: 500 uM
Record criterion met whenever switch fluorescence ratio is at 1 or higher; record criterion not met when lower.

Seq String | Class Assignment
CGGATAGTCA | criterion met
CGGGGAACTC | criterion met
TTCGGTTAGC | criterion met
AATAGTTCTG | criterion not met
TTATCAGTTT | criterion met
TAAGCAGAGG | criterion met
CCTTCCCGGG | criterion met
TTTTTACAGA | criterion met
GGTAGGTGGC | criterion not met
AAAAGGACGG | criterion met

Decide: is the reported value of switch fluorescence ratio for CAGAGTTCGG equal to or greater than 1? criterion met

Would you say TTAATTTACA shows switch fluorescence ratio at minimum 1? criterion met

API: above_or_equal(metric=switch fluorescence ratio, cutoff=1) for item ACATTCGTCC criterion met

* * *

System: ATP;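 note: ATP exposure 15 min at 22 °C before imaging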
Assay Method Text: switch fluorescence ratio, 500 uM ATP over buffer (Cy3 cluster intensity, sum of 5 cycles each) (fold (ratio)); higher = stronger signal-on switching upon ATP binding; sequences stand for … in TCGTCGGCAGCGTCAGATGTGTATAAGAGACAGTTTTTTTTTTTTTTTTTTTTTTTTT…TC
Condition Label: aptamer strand: ATP DNA aptamer (quencher-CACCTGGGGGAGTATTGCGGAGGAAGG + anchor), 100 nM annealed; ATP concentration: 500 uM
Quantity Kind: switch fluorescence ratio
Please give only the number in your answer, with no unit.

Some sequences with recorded switch fluorescence ratio:
Seq String | switch fluorescence ratio
GTGGGACAGG | 1.01
GGTTTAAAGG | 0.996
AGGGCCCCTG | 0.994
GCCGCTAAGG | 0.997
TCATAGTATG | 0.982
CGGTTAGAGG | 0.989
GGGACGGATT | 1
TTGGGAGAAA | 0.98

Dear colleague, I am looking for the recorded switch fluorescence ratio of the following sequence: ATGTTTGCCT 1

Find the recorded switch fluorescence ratio belonging to AATGGTAATA and report it. 0.986

* * *

System: ATP;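 note: ATP exposure 15 min at 22 °C before imaging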
Assay Method Text: switch fluorescence ratio, 500 uM ATP over buffer (Cy3 cluster intensity, sum of 5 cycles each) (fold (ratio)); higher = stronger signal-on switching upon ATP binding; sequences stand for … in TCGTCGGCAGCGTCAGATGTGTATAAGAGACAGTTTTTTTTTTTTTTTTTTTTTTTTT…TC
Condition Label: aptamer strand: ATP DNA aptamer (quencher-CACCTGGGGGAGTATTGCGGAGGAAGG + anchor), 100 nM annealed; ATP concentration: 500 uM
# key: entry, value: switch fluorescence ratio
Please reply with the number alone, leaving off any unit.

Example sequences with recorded switch fluorescence ratio:
Seq String | Number
GGTAGAGCTG | 1
AGTAGGTCGG | 0.987
GGGAGGCGGG | 0.99
ACTCGAAGGG | 1.02

Fill blank: measured switch fluorescence ratio of the sequence CGTTGTGGGA is ____. 1.01

Give the measured switch fluorescence ratio of GGAGTTCAGG . 0.99
